From: paper PMC6089664

Assay: Population pharmacokinetic
Assay type: in vivo, human
Settings: human, plasma, oral, geometric mean AUC24,SS at clinically effective doses, all patients, final PK assessments

# compound_structure_string, AUC, µM·h
rows = [
    ("CCS(=O)(=O)N1CC(CC#N)(n2cc(-c3ncnc4[nH]ccc34)cn2)C1", 2.39),
]

====

Experiment: Population pharmacokinetic
Type: in vivo, human
Details: human, plasma, oral, 6.9 mg/day, t1/2, eGFR ≥120 ml/min/1.73 m^2, 20–40kg (n=5), final PK visit, geometric mean (%CV)

# molecule, half-life
rows = [
    ("CCS(=O)(=O)N1CC(CC#N)(n2cc(-c3ncnc4[nH]ccc34)cn2)C1 [baricitinib, Baricitinib]", "5 h"),
]

====

Test: Population pharmacokinetic
Assay type: in vivo, human
Conditions: human, plasma, oral, AUC24,SS, eGFR <120 ml/min/1.73 m^2, >40kg (n=3), final PK visit, geometric mean (%CV)
measured_property: AUC (µM·h)

# compound_structure_string, data_value
records = [
    ("CCS(=O)(=O)N1CC(CC#N)(n2cc(-c3ncnc4[nH]ccc34)cn2)C1", 2.53),
]

====

Test: Population pharmacokinetic
Format: in vivo, human
Conditions: human, plasma, oral, Cmax, eGFR ≥120 ml/min/1.73 m^2, 20–40kg (n=5), final PK visit, geometric mean (%CV)
measured_property: Cmax (µM)

# compound_structure_string, data_value
records = [
    ("CCS(=O)(=O)N1CC(CC#N)(n2cc(-c3ncnc4[nH]ccc34)cn2)C1", 0.15),
]

====

Assay: Population pharmacokinetic
Type: in vivo, human
Details: human, plasma, oral, t1/2, eGFR <120 ml/min/1.73 m^2, <20kg (n=2), final PK visit, geometric mean (%CV)

# compound_structure_string, half-life [h]
rows = [
    ("CCS(=O)(=O)N1CC(CC#N)(n2cc(-c3ncnc4[nH]ccc34)cn2)C1", 4.8),
]

====

Test: Population pharmacokinetic
Format: in vivo, human
Settings: human, plasma, po
measured_property: Vd/F (L)

# compound_structure_string, data_value
records = [
    ("CCS(=O)(=O)N1CC(CC#N)(n2cc(-c3ncnc4[nH]ccc34)cn2)C1", 67.1),
]

====

Experiment: Population pharmacokinetic
Format: in vivo, human
Settings: human, plasma, oral, 8 mg/day, Cmax, eGFR ≥120 ml/min/1.73 m^2, <20kg (n=2), final PK visit, geometric mean (%CV)

# compound_structure_string, Cmax
rows = [
    ("CCS(=O)(=O)N1CC(CC#N)(n2cc(-c3ncnc4[nH]ccc34)cn2)C1", "171 nM"),
]

====

Assay: Population pharmacokinetic
Assay type: in vivo, human
Settings: human, plasma, oral, 8 mg/day
measured_property: CL/F (mL/min/kg)

# compound_structure_string, data_value
measured = [
    ("CCS(=O)(=O)N1CC(CC#N)(n2cc(-c3ncnc4[nH]ccc34)cn2)C1", 9.33),
]

====

Experiment: Population pharmacokinetic
Type: in vivo, human
Details: human, plasma, oral, 10 mg/day, t1/2, eGFR ≥120 ml/min/1.73 m^2, >40kg (n=5), final PK visit, geometric mean (%CV)

# compound_structure_string, readout_unit, half-life
data = [
    ("CCS(=O)(=O)N1CC(CC#N)(n2cc(-c3ncnc4[nH]ccc34)cn2)C1", "h", 7),
]
